Hi there, I'd appreciate the recorded protein stability index for every entry that follows.
B1: RAB11B (parent)
chain: AVPTDEARAFAEKNNLSFIETSAL

Variants of: B1
Assay: protein stability index of a GFP-peptide fusion (GPS, HEK-293T) (PSI 1-6); higher = more stable;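 note: lentivirally expressed fusions sorted by FACS into six bins by GFP to DsRed ratio, PSI derived from sequencing read proportions per bin multiplied by bin number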
Conditions: c terminus: a fixed tail appended
The response must contain the number and no unit.

Recorded protein stability index for F10L , please? 3.19

// repeat for S17E and report 4.62

// repeat for V2I and report 2.74

// repeat for K13M and report 2.09

// repeat for E6W and report 2.04

// repeat for K13R and report 2.5

// repeat for L16H and report 4.06

// repeat for E20W and report 1.32

// repeat for E6V and report 2.08

// repeat for T21M and report 3.35

// repeat for F18A and report 4.78

// repeat for N14C and report 2.18

// repeat for F10N and report 3.25

// repeat for L24K and report 4.15

// repeat for A7E and report 2.92

// repeat for A11Q and report 2.85

// repeat for E20N and report 1.74

// repeat for A9Q and report 3.14

// repeat for T21S and report 3.64

// repeat for E6H and report 2.61

// repeat for A1K and report 2.57

// repeat for A23F and report 2.14

// repeat for V2H and report 3.86

// repeat for V2M and report 3.41

// repeat for E12R and report 2.15

// repeat for E12P and report 2.34

// repeat for R8D and report 3.37

// repeat for A23S and report 3.38

// repeat for E12F and report 1.74

// repeat for A11R and report 2.35

// repeat for A23E and report 4.41

// repeat for A9N and report 2.52

// repeat for D5P and report 1.89

// repeat for P3S and report 2.57

// repeat for D5E and report 2.82

// repeat for E20D and report 2.92

// repeat for A1T and report 2.74

// repeat for F18P and report 4.88

// repeat for S17Q and report 4.23

// repeat for N14Q and report 3.47

// repeat for R8Y and report 3.12

// repeat for A7D and report 4.09

// repeat for S22L and report 3.08

// repeat for A23G and report 3.96

// repeat for A1E and report 3.65

// repeat for V2T and report 2.62

The measurements presented in this section are drawn from the supplement of paper PMC10567573.
